Here, each record is paired with measured TGI data.
tested on: HCT-15 colon; test: NCI tumour cell line growth inhibition, 48 h

compound	system-tested	TGI
Nc1ncnc2c1ncn2C1CC(OCc2ccccc2[N+](=O)[O-])C(CO)O1 (centres undefined)	HCT-15 colon	> 50 µM
O=C1c2ccccc2C(=O)c2c(OCCOCCO)cccc21	HCT-15 colon	> 100 µM
CC(C)C1N(C)c2ccc(Cl)cc2[C@H]2c3ccccc3CCN12 (some centres undefined)	HCT-15 colon	> 100 µM
NNC(=O)c1cc(=O)[nH][nH]1	HCT-15 colon	> 100 µM
COc1ccc(C(C2=C(O)COC2=O)c2cc3c(cc2O)OCO3)cc1OC (centres undefined)	HCT-15 colon	> 100 µM
Cc1nc2ccccc2c(/C=C/c2ccc(Cl)cc2)c1C(=O)/C=C/c1ccc(Cl)cc1	HCT-15 colon	3.13 µM
C(=C\N1CCCCC1)/c1nnnn1-c1ccccc1	HCT-15 colon	> 100 µM
CCOC(=O)N(c1ccccc1)N(CC)C(=O)/C(C)=N/Nc1ccc([N+](=O)[O-])cc1	HCT-15 colon	30.3 µM
COc1cc(C2c3cc4c(cc3OC(N3CCNCC3)C2C)OCO4)cc(OC)c1OC (centres undefined)	HCT-15 colon	> 39.9 µM

###

# collection of GI50 values tested on NCI-H460 lung
reported-property: GI50

compound	system-tested	value-observed
COc1cc2cc(Oc3ccc(NC(=O)Nc4ccc(Cl)c(Cl)c4)cc3)c(C)nc2cc1OC	NCI-H460 lung	2.46 µM
CCCCCCC[CH2][Sn]1([CH2]CCCCCCC)[O]C(=O)c2cccnc2[O]1	NCI-H460 lung	> 100 µM
CC[C@H](C)[C@H](NC(=O)CN(C)C)C(=O)N(C)[C@H](C[C@@H](OC(C)=O)c1nc(C(=O)NC23CC(C(=O)OC)(C2)C3)cs1)C(C)C	NCI-H460 lung	0.408 µM
COC(=O)c1ccc(NC(=O)Oc2ccc(N(CCCl)CCCl)cc2)cc1	NCI-H460 lung	0.386 µM
Cn1c(-c2c(N)n(CCCN3CCOCC3)c3nc(C#N)c(C#N)nc23)nc2ccccc21	NCI-H460 lung	> 42.5 µM

###

Quick reference for TGI among some compounds
system: ACHN renal; assay: NCI tumour cell line growth inhibition, 48 h
reported-property: TGI

compound	reported-property	value-observed
C[C@@H]1S[C@H](c2c(Cl)cccc2Cl)N2Cc3ccccc3N=C12	TGI	> 100 µM
Cc1cc(N2CCN(C)CC2)n2nc(-c3ccc(Cl)cc3)nc2n1	TGI	> 100 µM
CC1C(c2ccc(Cl)cc2)c2cc3c(cc2OC1N1CCOCC1)OCO3 (stereo not drawn)	TGI	> 100 µM

###

tested on: OVCAR-5 ovarian; experiment: NCI tumour cell line growth inhibition, 48 h; in the data active = GI50 below about 0.43 µM; inactive = the rest
Labels: Y (active), N (inactive)

compound	label-value
NC(=S)c1c(N)n(C2OC(CO)C(O)C2O)c2ncnc(N)c12 (stereo not drawn)	Y
N#CC1c2ccccc2C=CN1C(=O)N(c1ccccc1)c1ccccc1 (stereo not drawn)	N
CN(CC(=O)N(Cc1ccc(C2CCCCC2)cc1)c1ccc(C(=O)O)cc1)S(=O)(=O)c1c(F)c(F)c(F)c(F)c1F	N
Cc1cc(Cl)nc(N(CCCNc2ccnc3cc(Cl)ccc23)Cc2ccco2)n1	N
COC(=O)c1ccc(NC(=O)Oc2ccc(N(CCCl)CCCl)cc2)cc1	N
COc1cc2cc(Oc3ccc(NC(=O)Nc4ccc(Cl)c(Cl)c4)cc3)c(C)nc2cc1OC	N
Cn1cc(C2=C(c3cn(CCCCCSC(=N)N)c4ccccc34)C(=O)NC2=O)c2ccccc21	N
Cn1c(-c2c(N)n(CCCN3CCOCC3)c3nc(C#N)c(C#N)nc23)nc2ccccc21	N
